Ref: PubChem BioAssay (NCI)

tested on: OVCAR-3 ovarian; assay: NCI-60 one-dose screen, 48 h (100 = growth as untreated, 0 = no growth, -100 = all killed); details: 10 µM unless noted
Compounds without any hit were thinned out: in the full panel of roughly 83,000, 20% have a hit.
REPORTED ENDPOINT: growth (%)
Respond numerically; units are % and should not be typed.

What measured growth goes with O=C1NC(=O)C(=Cc2cn(CCCCCCn3c4ccccc4c(=O)c4ccccc43)c3ccccc23)C(=O)N1 ?
99.2

Would you kindly repeat that for COc1ccc(C(=O)c2sc3nc4c(cc3c2N)N2CCC4CC2)cc1OC ?
100

Would you kindly repeat that for CN(C)CCCOc1ccc2c(c1)c(C(=O)C(=O)NCCO)cn2Cc1ccccc1 ?
108

Would you kindly repeat that for CNC(=O)Oc1ccc(N(C)C)cc1C(C)C ?
97.7
